Molecular target: oxidized EcDsbA (Escherichia coli, UniProt P0AEG4)
Sequence (P0AEG4 20-208): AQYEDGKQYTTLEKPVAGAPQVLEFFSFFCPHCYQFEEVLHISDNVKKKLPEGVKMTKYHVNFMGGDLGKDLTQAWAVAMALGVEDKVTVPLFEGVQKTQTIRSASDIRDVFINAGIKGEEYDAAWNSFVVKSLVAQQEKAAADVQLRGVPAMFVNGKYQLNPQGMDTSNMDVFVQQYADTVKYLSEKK
Assay: biochemical
Conditions: association constant K
Experimental: ITC was performed using a MicroCal iTC200 instrument (GE Healthcare). […] Titrations were conducted at 25 °C using 15 consecutive injections of 2.5 μL with 180 s intervals and a stirring speed of 700 rpm. […] Every interaction was tested in triplicate and the values given represent mean and standard error of mean (SEM) from these triplicate analyses. Isothermal Titration Calorimetry (ITC). EcDsbA (A)/VcDsbA (B). Each experiment was conducted in triplicate; a single replicate […]
measurementName: Kd

compound="C[C@H](CCC(=O)NCCS(=O)(=O)O)[C@H]1CC[C@H]2[C@@H]3[C@H](O)C[C@@H]4C[C@H](O)CC[C@]4(C)[C@H]3C[C@H](O)[C@]12C [TC, sodium taurocholate]" endpointvalue="340 µM"

====

Molecular target: oxidized EcDsbA (Escherichia coli)
Experiment: biochemical
Assay type: binding
Set-up: made in house; host or cells: E. coli BL21(DE3)
measurementName: Kd

compound="OCCCc1nc2c(Cl)cc(C(F)(F)F)cc2[nH]1 [benzimidazole 2]" measuredtarget="oxidized EcDsbA (Escherichia coli)" endpointvalue="> 3.5 mM"

====

Target: oxidized VcDsbA (Vibrio cholerae serotype O1, UniProt P32557)
Sequence (P32557 20-200): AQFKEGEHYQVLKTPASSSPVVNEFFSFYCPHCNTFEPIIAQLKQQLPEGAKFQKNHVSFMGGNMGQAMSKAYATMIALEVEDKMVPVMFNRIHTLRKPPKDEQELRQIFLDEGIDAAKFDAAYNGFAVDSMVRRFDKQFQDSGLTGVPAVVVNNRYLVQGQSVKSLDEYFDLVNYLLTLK
Test: biochemical
Details: 1H-15N HSQC titration, one-site binding model, 100 μM 15N-labeled oxidized VcDsbA, 298 K; read-out: equilibrium dissociation constant (KD)
measurementName: Kd (µM)

molecule="OCCCc1nc2c(Cl)cc(C(F)(F)F)cc2[nH]1 [benzimidazole 2]" measuredtarget="oxidized VcDsbA (Vibrio cholerae serotype O1, UniProt P32557)" measurementname=Kd unitofmeasure=µM endpointvalue=446
molecule="OCCCc1nc2ccc(C(F)(F)F)cc2[nH]1 [benzimidazole 1]" measuredtarget="oxidized VcDsbA (Vibrio cholerae serotype O1, UniProt P32557)" measurementname=Kd unitofmeasure=µM endpointvalue=610

====

Molecular target: oxidized EcDsbA (Escherichia coli, UniProt P0AEG4)
Assay: biochemical
Details: KD
Description: ITC was performed using a MicroCal iTC200 instrument (GE Healthcare). […] Titrations were conducted at 25 °C using 15 consecutive injections of 2.5 μL with 180 s intervals and a stirring speed of 700 rpm. […] Every interaction was tested in triplicate and the values given represent mean and standard error of mean (SEM) from these triplicate analyses. Isothermal Titration Calorimetry (ITC). EcDsbA (A)/VcDsbA (B). Each experiment was conducted in triplicate; a single replicate […]
pKd: −log10 of the molar value.
measurementName: pKd

molecule="C[C@H](CCC(=O)NCCS(=O)(=O)O)[C@H]1CC[C@H]2[C@@H]3[C@H](O)C[C@@H]4C[C@H](O)CC[C@]4(C)[C@H]3C[C@H](O)[C@]12C [TC, sodium taurocholate]" endpointvalue=3.37
